All values here come from PubChem BioAssay AID743279.

Assay: qHTS for Inhibitors of Inflammasome Signaling: IL-1-beta AlphaLISA Primary Screen; also: % is scaled to controls: 0 for no effect and ±100 for the full control effect
Settings: THP-1 LPS/ATP IL-1B secretion, 16 h; at 57.5 µM, active compounds read low
Among all 360,000 compounds or so, about 17,000 (4.7%) were called active. About 5% were inconclusive and are not listed. The full list was thinned out, with actives kept by preference.
propertyLabel: activity change (%)

{"columns": ["molecule", "propertyLabel", "resultNumber"],
 "data": [
  ["CC(OC(=O)c1cccnc1Cl)C(=O)NC1CCCCC1 (stereo unspecified)", "activity change", -3.91],
  ["Cc1[nH]c(N)nc(=S)c1CCCNc1ccccc1", "activity change", 5.82],
  ["O=C1[C@H]2[C@@H](c3ccc(Cl)cc3)N3C(=O)N(c4cccc(F)c4)C(=O)[C@@]3(Cc3ccccc3)[C@H]2C(=O)N1C1CCCCC1", "activity change", -4.9],
  ["CCNc1nc(Oc2ccc(C(=O)OC)cc2)nc(N2CCOCC2)n1", "activity change", 7.61],
  ["CCN(Cc1ccncc1)C(=S)Nc1ccccc1C", "activity change", 9.34],
  ["CCN1CCN(C(=O)CCN2C(=O)c3ccccc3C2=O)CC1", "activity change", 15.8],
  ["COC(=O)c1ccc(Oc2nc(NC(C)C)nc(SC)n2)cc1", "activity change", 19.1],
  ["CCc1noc(C)c1C(=O)OCC(=O)c1ccc(NC(=O)CC(C)C)cc1", "activity change", 1.82],
  ["COC(=O)C[C@@H]1C=C[C@@H](NC(=O)c2cccnc2)[C@@H](CO)O1", "activity change", 2.57],
  ["CC(=O)Nc1ccc(C(=O)OCC(=O)Nc2ccc([N+](=O)[O-])cc2C(F)(F)F)cc1", "activity change", -1.11],
  ["CN(Cc1ccccc1)C(=O)CCC1CCN(C(=O)c2ccco2)CC1", "activity change", -7.63],
  ["O=C(c1ccc(Cl)c(S(=O)(=O)N2CCCCCC2)c1)N1CCN(c2ccc(O)cc2)CC1", "activity change", -10.9],
  ["CC(C)Oc1cc(F)ccc1-c1cc(C(=O)Nc2ccc(F)cc2)[nH]n1", "activity change", -25.4],
  ["COc1ccc(-c2nn(-c3ccccc3)cc2C(=O)Nc2nccs2)cc1OC", "activity change", -52.5],
  ["O=C(Nc1ccccc1)C1CC(=O)n2c(nc3ccccc32)N1 (stereo unspecified)", "activity change", -5.02],
  ["Cc1nc(Nc2ccccc2C)c2cnn(C)c2n1", "activity change", 5.45],
  ["C[C@@]12C(=O)N(c3cccc(Br)c3)C(=O)N1[C@H](c1ccc(Cl)cc1)[C@@H]1C(=O)N(C3CCCCC3)C(=O)[C@@H]12", "activity change", -60.3],
  ["OCC1(Cc2ccccc2C(F)(F)F)CCN(Cc2ccncc2)CC1", "activity change", 21.9],
  ["CCC1OC(C2CC2)CC2=C1C(=O)OC(C)(C)O2 (stereo unspecified)", "activity change", 29.6],
  ["C/C(=N/N1CCN(Cc2cccc3ccccc23)CC1)c1cccnc1", "activity change", 0],
  ["COc1ccc(Cl)cc1NC(=O)CN(C)C(=O)c1cn(-c2ccccc2)nc1-c1cccs1", "activity change", -15.3]
]}
